The values you see were collected from ChEMBL document CHEMBL1158161.

# test.name: Stability in 1 M glycine solution at pH 5.8 assessed as half life
# Assay type: physicochemical
quantity.measured: half-life (days)
Numbers only, in days.

Look up and state reported half-life for Nc1ncn(C[C@H](O)CO)c(=O)n1 15.8

====

# test.name: Stability in 1 M glycine solution assessed as half life
# Format: physicochemical
quantity.measured: half-life (days)
Answers are plain numbers, in days.

Would you mind listing half-life for each of the following molecules?
1. NC(N)=NC(=O)NC[C@@H](COC=O)OCP(=O)(O)O
2. NC(N)=NC(=O)NC[C@H]1COP(=O)(O)CO1
3. NC(N)=NC(=O)NC[C@H](O)CO
4. NC(N)=NC(=O)NCCOCP(=O)(O)O

1. 4.75
2. 14.7
3. 16.1
4. 26.2
